For reference, pIC50 measured on L-lactate dehydrogenase B chain (Homo sapiens, UniProt P07195):
Give bare numbers, as −log10 of the molar value.

>>> val("C[C@@H](Nc1nc(-n2cc(C(=O)O)cn2)cnc1N)c1ccccc1")
4.82
>>> val("C[C@@H](Nc1nc(-c2cc(C(=O)O)ccc2Cl)cnc1N)c1ccccc1")
5.10

# ---- query molecule ----
Note to self: pIC50 recorded for Cc1ccc(C(=O)O)cc1-c1cnc(N)c(N[C@H](C)c2ccccc2)n1 was 5.22

---

Assay: Volume of distribution in Sprague-Dawley rat at 1.5 mg/kg, po and 0.5 mg/kg, iv
Assay type: ADME, organism-based
Conditions: in vivo
assayMetric: Vd (L/kg)
Answers are plain numbers, in L/kg.

Note to self: Vd recorded for Cc1ccc(C(=O)O)cc1-c1cnc(N)c(N[C@H](C)c2ccc(Cl)cc2)n1 was 1.4
